The origin of these recorded values is paper PMC11676667.

Measured concentration at 4 h by item
Assay text: Plasma pharmacokinetics after single oral dose of Δ8-THCV in MCT oil (LC-MS/MS, non-compartmental analysis)
Format: in vivo, human
Assay context: human, plasma, oral, 25 mg, 4 h; 25 mg Δ8-THCV dose; Median (IQ Range)
Please state the number and follow it with the unit.

Sample answers from the record:
1. CCCc1cc(O)c2c(c1)OC(C)(C)[C@@H]1CCC(C(=O)O)=C[C@@H]21 | 3.6 ng/mL
2. CCCCCc1cc(O)c2c(c1)OC(C)(C)[C@@H]1CC=C(C(=O)O)CC21 (single isomer, unassigned; (+)) [Δ8-THC-COOH, (+)-11-nor-Δ8-THC-9-carboxylic acid] | 0 ng/mL
3. CCCc1cc(O)c2c(c1)OC(C)(C)[C@@H]1CC=C(C(=O)O)C[C@@H]21 | 108 ng/mL
4. CCCc1cc(O)c2c(c1)OC(C)(C)[C@@H]1CCC(C)=C[C@@H]21 [Δ9-THCV, Δ9-tetrahydrocannabivarin] | 0 ng/mL
5. CCCc1cc(O)c2c(c1)OC(C)(C)[C@@H]1CC=C(CO)C[C@@H]21 (racemic) [11-OH-Δ8-THCV, (±)-11-hydroxy-Δ8-THCV] | 0 ng/mL

Let us examine a further case.
Task: Find the recorded concentration at 4 h belonging to CCCc1cc(O)c2c(c1)OC(C)(C)[C@@H]1CC=C(C)C[C@@H]21 [Δ8-THCV, Δ8-tetrahydrocannabivarin] and report it.
Result: 1.5 ng/mL
